# Tested on: 349418-098-R tumor spheroid viability;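 further: spheroids exposed to compound for 7 days before measurement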
# assay-notes: Anticancer human tumor 349418-098-R patient-derived lung adenocarcinoma cell line growth inhibition; active means viability on the fitted dose curve at most 10% of control; inactive means the rest
# condition-description: second compound 100 µM; first compound 3.16 µM; spheroids with HUVEC and MSC
Outcomes: active, inactive

molecule="Cc1cc(C)c(CNC(=O)c2cc(-c3ccc(CN4CCOCC4)cc3)cc3c2cnn3C2CCCC2)c(=O)[nH]1 + Cn1nnc2c(C(N)=O)ncn2c1=O" assigned_class=inactive
molecule="CC(C)n1c(=O)n(C)c2cnc3cc(F)c(-c4ccc(OCCCN5CCCCC5)nc4)cc3c21 + Cn1nnc2c(C(N)=O)ncn2c1=O" assigned_class=inactive
molecule="CC1COCCN1c1cc(-c2ccnn2C)c2ccnc(-c3ccn[nH]3)c2n1 (stereo unspecified) + Cn1nnc2c(C(N)=O)ncn2c1=O" assigned_class=active
molecule="COc1ccc([C@@H](O)c2cc(-c3ncnc4cc(N5CCOCC5)ccc34)c(F)cc2Cl)nn1 + Cn1nnc2c(C(N)=O)ncn2c1=O" assigned_class=inactive
molecule="COc1cc(C)[nH]c(=O)c1CN1CCc2c(Cl)cc(C(OC)C3COC3)c(Cl)c2C1=O (stereo unspecified) + Cn1nnc2c(C(N)=O)ncn2c1=O" assigned_class=inactive
molecule="[2H]c1nc(C)nc([2H])c1-c1cc(NC[C@@H](C)c2cccc3c(C(=O)NC)ccnc23)ncn1 + Cn1nnc2c(C(N)=O)ncn2c1=O" assigned_class=inactive
